Data provenance: ChEMBL document CHEMBL4043076

Tested on: MIA PaCa-2
Test: Cytotoxicity against human MIAPaCa2 cells assessed as reduction in cell viability incubated for 24 hrs by MTT assay
Type: functional, cell-based
Conditions: MIA PaCa-2, 24 h
pIC50: −log10 of the molar value.
Here, each record is paired with measured pIC50 data.
METRIC: pIC50

structure_as_smiles=CC[C@H](C)[C@@H](O)C(=O)O[C@@H](C(=O)O[C@@H](C(=O)O[C@@H](C(=O)OC[C@@H](O)[C@@H](O)[C@H](O)CO)[C@@H](C)CC)[C@@H](C)CC)[C@@H](C)CC result="< 4.18"
structure_as_smiles=CC[C@H](C)[C@@H](O)C(=O)O[C@@H](C(=O)O[C@@H](C(=O)O[C@@H](C(=O)O[C@@H](C(=O)OC[C@@H](O)[C@@H](O)[C@H](O)CO)[C@@H](C)CC)[C@@H](C)CC)[C@@H](C)CC)[C@@H](C)CC result="< 4.26"
structure_as_smiles=CC[C@H](C)[C@@H](O)C(=O)O[C@@H](C(=O)O[C@@H](C(=O)O[C@@H](C(=O)O[C@@H](C(=O)O[C@H](CO)[C@@H](O)[C@H](O)CO)[C@@H](C)CC)[C@@H](C)CC)[C@@H](C)CC)[C@@H](C)CC result=4.44
structure_as_smiles=CC[C@H](C)[C@@H](O)C(=O)O[C@@H](C(=O)O[C@@H](C(=O)O[C@@H](C(=O)O[C@@H](C(=O)OC[C@@H](O)[C@@H](O)[C@H](O)[C@H](O)CO)[C@@H](C)CC)[C@@H](C)CC)[C@@H](C)CC)[C@@H](C)CC result="< 4.27"
structure_as_smiles=CC[C@H](C)[C@@H](O)C(=O)O[C@@H](C(=O)O[C@@H](C(=O)O[C@@H](C(=O)O[C@@H](C(=O)OC[C@@H](O)[C@@H](O)CO)[C@@H](C)CC)[C@@H](C)CC)[C@@H](C)CC)[C@@H](C)CC result="< 4.24"
structure_as_smiles=CC[C@H](C)[C@@H](O)C(=O)O[C@@H](C(=O)O[C@@H](C(=O)O[C@@H](C(=O)O[C@@H](C(=O)O[C@H](CO)[C@@H](O)[C@H](O)[C@H](O)CO)[C@@H](C)CC)[C@@H](C)CC)[C@@H](C)CC)[C@@H](C)CC result="< 4.27"
structure_as_smiles=CC[C@H](C)[C@@H](O)C(=O)O[C@@H](C(=O)O[C@@H](C(=O)O[C@@H](C(=O)O[C@@H](C(=O)O[C@@H]([C@H](O)[C@H](O)CO)[C@H](O)CO)[C@@H](C)CC)[C@@H](C)CC)[C@@H](C)CC)[C@@H](C)CC result="< 4.27"
structure_as_smiles=COc1cccc2c1C(=O)c1c(O)c3c(c(O)c1C2=O)C[C@@](O)(C(=O)CO)C[C@@H]3O[C@H]1C[C@H](N)[C@H](O)[C@H](C)O1 result=5.72
